Lab note: pIC50 readings collected with Human M3 receptor (Homo sapiens) for the following molecules.
Sequence (P20309 whole entry): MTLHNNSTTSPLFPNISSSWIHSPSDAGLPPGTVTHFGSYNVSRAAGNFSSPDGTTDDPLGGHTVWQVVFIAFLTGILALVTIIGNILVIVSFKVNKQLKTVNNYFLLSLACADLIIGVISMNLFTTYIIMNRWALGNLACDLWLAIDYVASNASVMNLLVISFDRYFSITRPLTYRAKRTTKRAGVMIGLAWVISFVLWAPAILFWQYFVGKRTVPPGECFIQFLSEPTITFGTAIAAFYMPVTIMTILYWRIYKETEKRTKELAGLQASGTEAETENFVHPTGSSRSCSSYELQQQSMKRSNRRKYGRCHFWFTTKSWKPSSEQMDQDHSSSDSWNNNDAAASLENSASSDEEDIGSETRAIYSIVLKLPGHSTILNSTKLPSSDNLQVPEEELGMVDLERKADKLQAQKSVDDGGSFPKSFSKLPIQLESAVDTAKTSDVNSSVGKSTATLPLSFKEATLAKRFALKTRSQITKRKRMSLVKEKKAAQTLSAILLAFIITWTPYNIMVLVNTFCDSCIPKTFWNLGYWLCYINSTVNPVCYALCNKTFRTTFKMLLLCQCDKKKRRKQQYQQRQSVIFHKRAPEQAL
pIC50: −log10 of the molar value.

What measured pIC50 is associated with O=C(NCCCOc1cccc([C@](O)(C(=O)OCC2CCN(Cc3ccccc3)CC2)c2ccccc2)c1)c1ccc(CNC[C@H](O)c2ccc(O)c3[nH]c(=O)ccc23)nc1 [Compound 32C] on Human M3 receptor (Homo sapiens)?
8.52 to 9.52

What measured pIC50 is associated with O=C(c1ccc(CCNC[C@H](O)c2ccc(O)c3[nH]c(=O)ccc23)cc1)N1CCC(COc2cccc([C@](O)(C(=O)OCC3CCN(Cc4ccccc4)CC3)c3ccccc3)c2)CC1 [Compound 31] on Human M3 receptor (Homo sapiens)?
> 9.52

What measured pIC50 is associated with O=C(c1ccc(CCNC[C@H](O)c2ccc(O)c3[nH]c(=O)ccc23)cc1)N1CCC2(CC1)CN(C(=O)c1ccc(COc3cccc([C@](O)(C(=O)OCC4CCN(Cc5ccccc5)CC4)c4ccccc4)c3)cc1)C2 [Compound 117] on Human M3 receptor (Homo sapiens)?
8.52 to 9.52

What measured pIC50 is associated with O=C(COc1cccc([C@](O)(C(=O)OCC2CCN(Cc3ccccc3)CC2)c2ccccc2)c1)N1CCC(CCNC[C@H](O)c2ccc(O)c3[nH]c(=O)ccc23)CC1 [Compound 36A] on Human M3 receptor (Homo sapiens)?
8.52 to 9.52

What measured pIC50 is associated with O=C(COc1cccc([C@](O)(C(=O)OCC2CCN(Cc3ccccc3)CC2)c2ccccc2)c1)N[C@H]1CCN(C(=O)c2ccc(CNC[C@H](O)c3ccc(O)c4[nH]c(=O)ccc34)cc2)C1 [Compound 70] on Human M3 receptor (Homo sapiens)?
8.52 to 9.52

What measured pIC50 is associated with O=C(N[C@H]1CCCN(C(=O)COc2cccc([C@](O)(C(=O)OCC3CCN(Cc4ccccc4)CC3)c3ccccc3)c2)C1)c1ccc(CCNC[C@H](O)c2ccc(O)c3[nH]c(=O)ccc23)cc1 [Compound 108] on Human M3 receptor (Homo sapiens)?
8.52 to 9.52

What measured pIC50 is associated with O=C(OCC1CCN(Cc2ccccc2)CC1)[C@@](O)(c1ccccc1)c1cccc(OCCCCCCNCC(O)c2ccc(O)c3[nH]c(=O)ccc23)c1 (stereo in doubt) [Compound 27] on Human M3 receptor (Homo sapiens)?
< 8.52

What measured pIC50 is associated with O=C(COc1cccc([C@](O)(C(=O)OCC2CCN(Cc3ccccc3)CC2)c2ccccc2)c1)N[C@H]1C[C@H](NC(=O)c2ccc(CNC[C@H](O)c3ccc(O)c4[nH]c(=O)ccc34)c(O)c2)C1 [Compound 127] on Human M3 receptor (Homo sapiens)?
> 9.52

What measured pIC50 is associated with O=C(COc1cccc([C@](O)(C(=O)OCC2CCN(Cc3ccccc3)CC2)c2ccccc2)c1)N[C@H]1C[C@H](NC(=O)c2ccc(CNC[C@H](O)c3ccc(O)c4[nH]c(=O)ccc34)cc2Br)C1 [Compound 136] on Human M3 receptor (Homo sapiens)?
8.52 to 9.52

What measured pIC50 is associated with O=C(c1ccc(CCNC[C@H](O)c2ccc(O)c3[nH]c(=O)ccc23)cc1)N1CC2(C1)CN(C(=O)c1ccc(COc3cccc([C@](O)(C(=O)OCC4CCN(Cc5ccccc5)CC4)c4ccccc4)c3)cc1)C2 [Compound 116] on Human M3 receptor (Homo sapiens)?
8.52 to 9.52
